# Tested on: NCI-H460 lung
# EXPERIMENT NOTES: NCI-60 one-dose screen, 48 h (100 = growth as untreated, 0 = no growth, -100 = all killed)
# CONDITION SUMMARY: 10 µM unless noted
# Experimental: Growth inhibition of the NCI-H460 human Non-Small Cell Lung tumor cell line is measured as a screen for anti-cancer activity. Cells are grown in 96 well plates and exposed to the test compound for 48 hours. Compounds are tested at a single concentration, which is 10^-5 M for most compounds. The reported endpoint is percent growth (GI% or GIPRCNT), where numbers from 0 - 100% represent growth inhibition, and numbers from -100% - 0 represent cell death. […]
This is part of a sample that, as a whole, favours compounds with a hit. Of some 83,000 tested, about 20% had one in any assay.
What growth was measured for each of the following?
Output spec: scalar in %, unitless text.

Prompt: Requested field: growth. Item: Cc1cc(=O)oc2cc(OCCCOc3ccc(/C=C/C(=O)Nc4ccccc4N)cc3)ccc12
Completion: 14.5

Prompt: How about this compound: COc1ccc(C(=O)/C=C/c2ccc(OCc3ccccc3)c(OC)c2)cc1OC
Completion: 5.57

Prompt: Would you kindly repeat that for Cc1ccc(C(SCCNCc2cc(N(C)C)ccn2)(c2ccccc2)c2ccccc2)cc1 ?
Completion: -26.6

Prompt: Next record, please: CC(C)c1sc(NC(=O)c2cc(NC(=O)c3cc(NC(=O)c4cscn4)cn3C)cn2C)nc1C(=O)NCCCN(C)C
Completion: 89.9

Prompt: Also need C=C1CC[C@@H]2[C@]3(C)COC(c4cn[nH]c4-c4ccc(F)cc4)O[C@@H]3CC[C@@]2(C)[C@@H]1C/C=C1/C(=O)OCC1O (stereo partly drawn) , thanks.
Completion: -63.5

Prompt: Can you check COCOc1cc2c(=O)c(C)c(C(=O)N[C@@H](Cc3ccccc3)C(O)C(=O)NCc3ccccc3)oc2cc1OC (stereo partly drawn) next?
Completion: -9.86

Prompt: Subsequent entry: C#CCOc1cc(N(CC)CC)ccc1C(C(=O)NC(C)(C)C)N(C(=O)C1CCc2cc(F)ccc2O1)c1cc(C)cc(C)c1 (stereo not drawn)
Completion: 30.4

Prompt: Then NS(=O)(=O)c1ccc(-n2cc(-c3cccc(NC(=O)c4cc(N5CCOCC5)cc(C(F)(F)F)c4)c3)nn2)cc1 ?
Completion: 64.3

* * *

# Test system: NCI-H522 lung
# EXPERIMENT NOTES: NCI-60 one-dose screen, 48 h (100 = growth as untreated, 0 = no growth, -100 = all killed)
# CONDITION SUMMARY: 10 µM unless noted
About 83,000 compounds went through this panel and 20% of them were active in at least one assay; those are over-represented in the sample as a whole.
RECORDED ENDPOINT: growth (%)
The reply should contain only the number, in %.

Prompt: Requested read-out: growth. Entry: COc1c(F)ccc(C(=O)Nc2ccc3nc(NC(=O)C4CCCN(S(=O)(=O)c5ccc(C(F)(F)F)cc5)C4)sc3c2)c1F (centres undefined)
Completion: 76

Prompt: And for CN(C)CCCNC(=O)c1cc(NC(=O)c2cc(NC(=O)c3ccc(/C=C/c4ccccc4)cc3)cn2C)cn1C ?
Completion: -16.4

Prompt: Another molecule: COc1cc(C2CC(c3cc(OC)c(OC)c(OC)c3)=NN2C(C)=O)ccc1OCc1ccc(F)cc1 (centres undefined)
Completion: 42.1

Prompt: Follow-up item: CC1=C(C(=O)OCc2ccccc2)C(c2ccc(-n3cncn3)cc2)n2c(nc3ccccc32)N1 (centres undefined)
Completion: 19.3

Prompt: Same question for Cn1cc(-c2cc3nc(-c4cn(C)c5ncccc45)cc(N)n3n2)c2cc(Cl)ccc21 please.
Completion: -85.1

Prompt: How about this molecule: Cn1cc(-c2nc(N)nnc2-c2c[nH]c3ccc(F)cc23)c2cc(Br)cnc21
Completion: -52.3

Prompt: Okay, and O=C(CN1C(=O)/C(=C/c2ccccc2F)SC1=S)N1CCOCC1 ?
Completion: -83.2

Prompt: Can you check Cc1cnc(C(=O)NNc2nc3cc(F)ccc3n3c(C(=O)N4CC5CC(C4)N5)ccc23)cn1 next?
Completion: 57.8

Prompt: Please answer likewise for COc1cc(CNC(=O)/C=C/c2ccc3c(c2)OCO3)ccc1OCc1cn(-c2ccc([N+](=O)[O-])cc2)nn1
Completion: 84.9

* * *

# Tested on: NCI-H23 lung
# EXPERIMENT NOTES: NCI-60 one-dose screen, 48 h
# CONDITION SUMMARY: 10 µM unless noted
The panel holds about 83,000 compounds, 20% with a hit somewhere; the sample as a whole holds those more often. The source made the active and inactive calls. How the source made its calls: active means growth percent below 10; inactive means the rest.
One label from this list, please: class 1 for active, class 0 for inactive

Prompt: Any idea what this test logged for Cn1cc(NC(=O)c2cc(NC(=O)c3ccc(C#Cc4ccccc4)cc3)cn2C)cc1C(=O)NCCCN1CCOCC1 ?
Completion: class 0

Prompt: Here is the next compound: C=C1CCC2C3(C)COC(c4ccccc4F)OC3CCC2(C)C1CC(O)C1=CCOC1=O (stereo unspecified)
Completion: class 0

Prompt: Also, COc1ccc(NC(=O)Cn2c(/C=C/c3cccc([N+](=O)[O-])c3)nc3ccccc3c2=O)cc1 please.
Completion: class 0

Prompt: // same read-out, input: CCOC(=O)c1ccc(Nc2nc(NN)nc(-c3ccc(F)cc3)c2C#N)cc1
Completion: class 0

Prompt: Consider next the compound CCCCOc1ccc(NC(=O)c2sc3nc(C)ccc3c2N)cc1 in the same way.
Completion: class 1

Prompt: Quick one: COc1cc(/C=C/C(=O)c2nnn(-c3ccc(Cl)cc3)c2C)cc(OC)c1OC
Completion: class 0

Prompt: Ok, now Cn1cc(-c2cc(N)n3nc(-c4c[nH]c5ccccc45)cc3n2)c2cccnc21
Completion: class 0

Prompt: Next: CC1=C(C(=O)c2ccccc2)C(c2cccc(Cl)c2Cl)n2c(nc3ccccc32)N1 (stereo unspecified)
Completion: class 0

Prompt: Would you mind doing CN(C)CCn1c2ccccc2c2nc3cc(C(F)(F)F)ccc3nc21 as well?
Completion: class 0

Prompt: Thanks! And COc1ccc2c(c1)c(-c1cc3nc(-c4cn(C)c5ncccc45)cc(N)n3n1)cn2C ?
Completion: class 1

Prompt: Further, for CC1(C)CC[C@]2(C(=O)Nc3ccc(Br)cc3)CC[C@]3(C)C(=CCC4[C@@]5(C)C[C@@H](O)[C@H](O)[C@@](C)(CO)C5CC[C@]43C)C2C1 (stereo partly specified) ?
Completion: class 1

Prompt: And for O=C(COc1ccc2c(c1)CCCC(=O)N2)NCc1ccccc1 ?
Completion: class 0

Prompt: Ok, now Cc1c(C(=O)NNC(=O)c2ccc(Cl)cc2)nnn1-c1ccc(Cl)cc1
Completion: class 0

Prompt: Now the compound Clc1ccc(-c2ccc(OCCCN3CCN(c4ccncc4)CC3)cc2)cc1
Completion: class 0

Prompt: Query C=C1CCC2C3(C)COC(c4ccc(F)cc4)OC3CCC2(C)C1C/C=C1/C(=O)OCC1O (stereo unspecified) next
Completion: class 1

Prompt: Continue with CC(=O)Nc1cccc(Nc2nc(NCc3ccccc3)c3ccccc3n2)c1
Completion: class 1

Prompt: Also need CNC(=O)c1cccc(NC(=O)c2ccc3c(c2)nnn3/C(C#N)=C/c2ccccn2)c1 , thanks.
Completion: class 1

Prompt: Another compound to check: Cc1ncsc1-c1ccc(CNC(=O)[C@@H]2C[C@@H](O)CN2C(=O)[C@@H](NC(=O)C2(F)CC2)C(C)(C)C)c(OCCOCCOCCOCCOc2nc(Nc3cc(S(C)(=O)=O)ccc3N[C@@H](c3cccc4c3OC(F)(F)O4)c3ncccc3Cl)nc(N3CCNCC3)n2)c1
Completion: class 0

Prompt: Same question, Cc1ccc([C@H]2C(C(=O)c3ccc(Cl)cc3)C3(N[C@@H]2c2ccccc2)C(=O)Nc2ccccc23)cc1 (stereo partly specified) this time
Completion: class 0

Prompt: Also, O=C(/C=C/Nc1ccc(Cl)cc1)c1ccc2c(c1)Nc1ccccc1S2 please.
Completion: class 0

Prompt: What about Cn1nc(C(F)(F)F)cc1-c1cc(Cl)c(COc2ccc(Cl)cc2)c(-c2ccc(Cl)c(C(F)(F)F)c2)c1O ?
Completion: class 1

Prompt: // same read-out, input: CC(=O)c1cccc(NC(=O)CCC(=O)NS(=O)(=O)c2ccc(C)cc2)c1
Completion: class 0

Prompt: And for Cc1cc2nc3c4ccccc4n(CCNCCN(C)C)c3nc2cc1C ?
Completion: class 0

Prompt: Query C=C1CC[C@@H]2[C@]3(C)COC(c4cn[nH]c4-c4ccc(OC)cc4)O[C@@H]3CC[C@@]2(C)[C@@H]1C/C=C1/C(=O)OCC1O (stereo partly specified) next
Completion: class 1

Prompt: Entry to check: NC(=S)Nc1cccc(NC(N)=S)c1
Completion: class 0

Prompt: Same thing, different compound: O=C(COc1ccc(NC(=O)Nc2ccc(Cl)c(Cl)c2)cc1)N=Nc1c(O)[nH]c2ccccc12
Completion: class 1

Prompt: What do you get for Cc1ccc([C@H]2C(C(=O)c3ccc(Cl)cc3)C3(N[C@@H]2c2ccccc2)C(=O)Nc2ccc(Br)cc23)cc1 (stereo partly specified) ?
Completion: class 0

Prompt: # repeat for COc1ccc2[nH]cc(-c3nnc(N)nc3-c3c[nH]c4ncc(Br)cc34)c2c1
Completion: class 0

Prompt: Now give it for S=C(Nc1ccccc1)Nc1ccc(OCc2nc3ccccc3[nH]2)cc1 too.
Completion: class 0

Prompt: And the next one, CNC(=O)c1cc(Oc2ccc3nc(NC(=O)Nc4cccc(OC(F)(F)F)c4)sc3c2)ccn1 ?
Completion: class 1

Prompt: Quick one: COc1cc(CNC(=O)/C=C/c2ccc3c(c2)OCO3)ccc1OCc1cn(-c2cccc(C(F)(F)F)c2)nn1
Completion: class 1

Prompt: Next compound up: Clc1cccc(-c2ccc(OCCCN3CCN(c4ccncc4)CC3)cc2)c1
Completion: class 0

Prompt: Another: O=C(Nc1ccc(C(F)(F)F)cc1)Nc1ccc2oc(=O)ccc2c1
Completion: class 1

Prompt: Another compound: N#Cc1c(-c2cccc(O)c2O)cc(-c2ccc3ccccc3c2)[nH]c1=O
Completion: class 0

Prompt: Okay, and Cc1ccc(/C=C/c2n(Cc3ccc4ccccc4c3)c3ccccc3[n+]2Cc2ccc3ccccc3c2)cc1 ?
Completion: class 1

Prompt: Also check COc1cc2c3c(n(CCCN4CCC[C@@H]4CO)c(=O)c2cc1OC)-c1cc2c(cc1C3=O)OCO2
Completion: class 1
